Form field: selectivity ratio (one value per entry).
- method notes: Selectivity index, ratio of CC50 for cytotoxicity against human Huh-7 cells infected with Yellow fever virus assessed as reduction in cell viability by neutral red dye based assay to EC50 for antiviral activity against Yellow fever virus infected in human Huh-7 cells assessed as reduction in virus-induced cytopathic effect by neutral red based analysis
- Assay type: toxicity
- condition summary: read-out: Ratio CC50/EC50
Reply briefly: the number, and no unit.

smiles_text=CC(C)OC(=O)[C@H](C)N[P@](=O)(OC[C@H]1N[C@@H](c2ccc3c(N)ncnn23)[C@H](O)[C@@H]1O)Oc1ccccc1 result_number=9

Task: Form field: reported selectivity ratio of Nc1ncnn2c([C@@H]3N[C@H](CO)[C@@H](O)[C@H]3O)ccc12
Output: 8.6

----------
- method notes: Selectivity index, ratio of CC50 for cytotoxicity against human Huh-7 cells infected with DENV-2 assessed as reduction in cell viability by visual analysis to EC50 for antiviral activity against DENV-2 infected in human Huh-7 cells assessed as reduction in virus-induced cytopathic effect by visual analysis
- Type: toxicity, cell-based
- condition summary: read-out: Ratio CC50/EC50
Recorded measurements of selectivity ratio, one per entry

smiles_text=Nc1ncnn2c([C@@H]3N[C@H](CO)[C@@H](O)[C@H]3O)ccc12 result=10

# input for lookup
Task: Which selectivity ratio is reported for this compound? Nc1ncnc2c([C@@H]3N[C@H](CO)[C@@H](O)[C@H]3O)c[nH]c12
Output: > 7.7

----------
- Test system: Influenza A virus
- method notes: Antiviral activity against Influenza A virus H3N2 infected in dog MDCK cells assessed as inhibition of viral replication measured after 15 to 30 mins by neutral red dye based analysis
- Assay type: functional, organism-based
property measured: EC50 (nM)
Dear colleague, please return just the value in nM, with no unit written.

Task: Returns the measured EC50 for the input compound. Input: Nc1ncnn2c([C@@H]3N[C@H](CO)[C@@H](O)[C@H]3O)ccc12
Output: 310

----------
- method notes: Selectivity index, ratio of CC50 for cytotoxicity against African green monkey Vero cells infected with JUNV assessed as reduction in cell viability by neutral red dye based analysis to EC50 for antiviral activity against JUNV infected in African green monkey Vero cells assessed as reduction in viral replication by neutral red dye based analysis
- Type: toxicity
- condition summary: read-out: Ratio CC50/EC50
property measured: selectivity ratio
Lab note: jot down the number only; don't add units.

Task: Fill blank: measured selectivity ratio of the compound Nc1ncnn2c([C@@H]3N[C@H](CO)[C@@H](O)[C@H]3O)ccc12 is ____.
Output: 34

----------
- method notes: Selectivity index, ratio of CC50 for cytotoxicity against African green monkey Vero cells infected with Tacaribe virus assessed as reduction in cell viability by neutral red dye based analysis to EC50 for antiviral activity against Tacaribe virus infected in African green monkey Vero cells assessed as reduction in viral replication by neutral red dye based analysis
- Assay type: toxicity
- condition summary: read-out: Ratio CC50/EC50
property measured: selectivity ratio
The answer should be written as a number, with no unit following it.

Task: Field request: selectivity ratio | item: Nc1ncnn2c([C@@H]3N[C@H](CO)[C@@H](O)[C@H]3O)ccc12
Output: 20

----------
- method notes: Selectivity index, ratio of CC50 for cytotoxicity against vervet monkey MA-104 cells infected with MERS-CoV assessed as reduction in cell viability by neutral red dye based analysis to EC50 for antiviral activity against MERS-CoV infected in vervet monkey MA-104 cells assessed as reduction in virus-induced cytopathic effect by neutral red dye based analysis
- Format: toxicity
- condition summary: read-out: Ratio CC50/EC50
property measured: selectivity ratio

Task: Requested field: selectivity ratio. Item: Nc1ncnc2c([C@@H]3N[C@H](CO)[C@@H](O)[C@H]3O)c[nH]c12 [GALIDESIVIR]
Output: > 3.1

The reported measurements were obtained from ChEMBL document CHEMBL5257097.
